Target: human PDE2A1 (Homo sapiens, UniProt O00408)
Construct: GST; purchased BPS Bioscience (San Diego, Calif.) 60020; host or cells: insect cells
Sequence (O00408 1-920 isoform O00408-2): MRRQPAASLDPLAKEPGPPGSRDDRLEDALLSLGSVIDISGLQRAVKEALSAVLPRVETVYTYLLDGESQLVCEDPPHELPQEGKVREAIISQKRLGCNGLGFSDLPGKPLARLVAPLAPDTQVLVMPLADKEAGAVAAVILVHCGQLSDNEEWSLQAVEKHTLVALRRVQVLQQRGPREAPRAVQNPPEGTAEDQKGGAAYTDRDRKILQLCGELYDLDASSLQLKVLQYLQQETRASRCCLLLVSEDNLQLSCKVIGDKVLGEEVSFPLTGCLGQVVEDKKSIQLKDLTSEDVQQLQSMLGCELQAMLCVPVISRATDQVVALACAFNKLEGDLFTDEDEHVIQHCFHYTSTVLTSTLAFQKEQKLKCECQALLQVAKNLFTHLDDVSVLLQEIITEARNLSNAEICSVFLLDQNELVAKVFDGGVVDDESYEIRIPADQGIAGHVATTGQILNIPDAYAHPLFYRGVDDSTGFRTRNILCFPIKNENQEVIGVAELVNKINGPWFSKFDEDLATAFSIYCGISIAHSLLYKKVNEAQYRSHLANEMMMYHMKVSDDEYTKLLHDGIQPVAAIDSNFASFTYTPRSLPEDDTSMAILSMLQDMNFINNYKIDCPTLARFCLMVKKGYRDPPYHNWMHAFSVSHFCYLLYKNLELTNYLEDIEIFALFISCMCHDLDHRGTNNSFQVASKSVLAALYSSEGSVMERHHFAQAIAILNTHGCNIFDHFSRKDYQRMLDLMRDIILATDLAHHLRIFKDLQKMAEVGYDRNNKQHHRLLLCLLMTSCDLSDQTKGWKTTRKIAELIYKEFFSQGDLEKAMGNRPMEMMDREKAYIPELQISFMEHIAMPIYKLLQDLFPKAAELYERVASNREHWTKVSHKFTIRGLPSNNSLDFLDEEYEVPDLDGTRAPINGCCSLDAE
Assay: IMAP FP PDE selectivity panel, human PDE2A1
Type: biochemical
Settings: Lab B; read-out: Human PDE2 Ki (nM) Lab B
observable: Ki (nM)

{"columns": ["molecule", "system", "unit.label", "Ki"],
 "data": [
  ["CC1(c2ccc(C(Nc3cc(C(F)(F)F)nc4ncnn34)C(C)(C)O)cc2)CC1 (single isomer, unassigned) [Example 180]", "human PDE2A1 (Homo sapiens, UniProt O00408)", "nM", 12],
  ["CC[C@@H](Nc1cc(C)nc2ncnn12)c1ccc(C(F)(F)F)c(F)c1", "human PDE2A1 (Homo sapiens, UniProt O00408)", "nM", 61],
  ["COc1cc(C(F)(F)F)ccc1C(C)(C)Nc1cc(C)nc2ncnn12", "human PDE2A1 (Homo sapiens, UniProt O00408)", "nM", 474]
]}

A = Cc1cc(N[C@@H](c2ccc(OC(F)(F)F)cc2F)C(C)(C)O)n2ncnc2n1
B = CC(C)(O)C(Nc1cc(C(F)(F)F)nc2ncnn12)c1ccc(OC(F)(F)F)c(F)c1 (single isomer, unassigned) [Example 175]
C = Cc1cc(N[C@@H](c2ccc(CC(F)(F)F)cc2)C(C)(C)C)n2ncnc2n1
Problem: Arrange the 3 molecules from largest to smallest Ki. When ranking, write the labels in the order the request describes.
Solution: A, B, C
(A: 742 nM, B: 14 nM, C: 7.8 nM)

----------
Target: Rhesus PDE2A3 (Macaca mulatta, UniProt B3VTJ2)
Construct: made in house; host or cells: AD293 cells, transiently transfected with pcDNA3.3-TOPO; lysate supernatant used
Sequence (B3VTJ2 1-941): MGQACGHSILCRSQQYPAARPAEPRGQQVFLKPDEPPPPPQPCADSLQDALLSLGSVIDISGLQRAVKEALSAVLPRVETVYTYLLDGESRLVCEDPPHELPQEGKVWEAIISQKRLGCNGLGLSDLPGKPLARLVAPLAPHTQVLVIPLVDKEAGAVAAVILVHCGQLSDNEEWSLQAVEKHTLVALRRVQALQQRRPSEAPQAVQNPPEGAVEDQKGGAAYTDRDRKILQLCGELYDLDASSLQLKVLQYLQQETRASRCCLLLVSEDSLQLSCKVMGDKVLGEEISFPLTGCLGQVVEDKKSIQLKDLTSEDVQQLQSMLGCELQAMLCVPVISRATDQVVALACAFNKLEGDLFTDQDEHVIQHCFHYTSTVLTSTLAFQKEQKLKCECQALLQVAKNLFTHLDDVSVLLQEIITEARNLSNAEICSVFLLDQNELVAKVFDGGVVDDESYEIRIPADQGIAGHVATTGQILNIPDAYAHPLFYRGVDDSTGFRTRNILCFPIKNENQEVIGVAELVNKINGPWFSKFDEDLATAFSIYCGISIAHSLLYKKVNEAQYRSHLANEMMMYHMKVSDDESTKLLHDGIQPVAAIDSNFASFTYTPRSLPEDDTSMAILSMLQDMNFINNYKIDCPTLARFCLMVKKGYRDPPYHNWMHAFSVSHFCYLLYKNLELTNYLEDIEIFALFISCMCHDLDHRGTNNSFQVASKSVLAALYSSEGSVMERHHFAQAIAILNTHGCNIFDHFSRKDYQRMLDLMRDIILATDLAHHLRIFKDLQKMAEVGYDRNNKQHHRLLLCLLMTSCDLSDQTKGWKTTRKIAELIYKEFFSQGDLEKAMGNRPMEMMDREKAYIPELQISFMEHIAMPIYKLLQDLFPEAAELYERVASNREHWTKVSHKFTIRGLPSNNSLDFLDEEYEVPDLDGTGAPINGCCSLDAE
Test: PDE2 fluorescence polarization (IMAP FP) inhibition assay, rhesus PDE2A3
Format: biochemical, rhesus macaque
Conditions: Lab B; read-out: Rhesus PDE2 Ki (nM) Lab B
observable: Ki (nM)

Study these solved cases before continuing.
{"columns": ["molecule", "Ki [nM]"],
 "data": [
  ["Cc1cc(NC(c2ccc(S(F)(F)(F)(F)F)cc2)C(C)(C)O)n2ncnc2n1 (single isomer, unassigned)", 5.6],
  ["Cc1cc(N[C@@H](c2ccc(OC(F)(F)F)c(F)c2)C(C)(C)O)n2ncnc2n1 (single isomer, unassigned)", 6.8],
  ["Cc1cc(NC2(c3ccc(C(F)(F)F)cc3)CC2)n2ncnc2n1", 61]
]}

P = Cc1cc(NC2(c3ccc(C(F)(F)F)c(F)c3)CC2)n2ncnc2n1
Q = Cc1cc(N[C@@H](c2ccc(C(F)(F)F)c(F)c2)C(C)(C)O)n2ncnc2n1
Problem: Lower value for measured Ki? Options: P , Q Returns: label corresponding to the selected item.
Solution: Q
